Attribution: PubChem BioAssay (NCI)

# experiment-notes: NCI Yeast Anticancer Drug Screen. Data for the bub3 strain (AID 167)
# settings: S. cerevisiae bub3 mutant strain, at 50.0 µM (retest, dose inferred, filed as 5.0), stronger effect = higher value
This is part of a sample that, as a whole, favours compounds with a hit. Of some 79,000 tested, about 15% had one in any assay.
endpoint: growth inhibition (%)

O=C1C=CC(=O)c2nc3ccccc3nc21    98
CN1C/C(=C\c2ccccc2)C(=O)/C(=C/c2ccccc2)C1    99
c1ccc(CCN(Cc2nc3ccccc3[nH]2)Cc2nc3ccccc3[nH]2)cc1    95
CCCCCC(/C=N/Nc1nc(C)cc(=O)[nH]1)=C\c1ccccc1    83
CN(C)c1ccc(C2(Cl)c3ccccc3N(Cc3ccccc3)c3ccccc32)cc1    94
Cc1cc(Cc2ccc(Cl)cc2)ccc1O    99
CCCCCCCCCCCCCCCCOCC(Cl)COP(=O)(O)OP(=O)(O)OCC1OC(n2cc(C)c(=O)[nH]c2=O)CC1O (stereo not drawn)    97
Cc1ccc(NC(=O)CCC(=O)CC(=O)C(C)(C)C)cc1C    3
N#Cc1ccc(C2Oc3ccc(Cl)cc3C=C2[N+](=O)[O-])cc1 (stereo not drawn)    98
CC(C)(CC(=O)NNc1ccccc1)C(=O)O    94
COC(=O)c1cc(-c2ccc([N+](=O)[O-])cc2)c2c(=O)n(-c3ccccc3)[nH]c2n1    83
CN(C)c1ccc(-c2c(C#N)c(S)n(NS(=O)(=O)c3ccccc3)c(=O)c2C#N)cc1    93
CCCCCCCCCCCCCCCCCCSSCCCCCCCCCCCCCCCCCC    1
FC(F)(F)c1nc(Cl)nc2nc[nH]c12    4
O=C(CSc1nnc(Cc2ccccc2)o1)Nc1cccc(Cl)c1    95
COc1ccc(OC)c2c1C=C[C@H](C1(C)SCCS1)C2C(C)=O (stereo partly drawn)    90
COc1cc2c(cc1OC)C(=O)C(C)(c1ccccc1)NC2 (stereo not drawn)    31
O=C1C(c2ccc(Br)cc2)=[N+]([O-])c2ccccc21    94
CCOC(=O)C(=C=Cc1cccs1)C(=O)c1ccccc1    97
O=S(=O)(CC(Br)Br)c1ccccc1    99
NCc1cccc(O)c1O    72
CCCCCCCCNc1ccc(Cl)cc1    97
C(=P(c1ccccc1)(c1ccccc1)c1ccccc1)[P+](c1ccccc1)(c1ccccc1)c1ccccc1    99
